Tested on: 653999-131-R-J2-PDC complex spheroids, growth inhibition
run-description: Anticancer human tumor 653999-131-R-J2-PDC patient-derived lung adenocarcinoma cell line growth inhibition [RAS]
condition-info: second compound 3.16 µM; first compound 3.16 µM; stronger effect = lower value
measure-name: viability, T/C

The measured viability, T/C associated with C[C@@H](NC(=O)c1ncnc(N)c1Cl)c1ncc(C(=O)Nc2cc(C(F)(F)F)c(Cl)cn2)s1 + C#Cc1c(F)ccc2cc(O)cc(-c3ncc4c(N5CC6CCC(C5)N6)nc(OCC56CCCN5CC(F)C6)nc4c3F)c12 reads 51.5%

The measured viability, T/C associated with CC(=O)OC12COC1CC(O)C1(C)C(=O)C(O)C3=C(C)C(OC(=O)C(O)C(NC(=O)OC(C)(C)C)c4ccccc4)CC(O)(C(OC(=O)c4ccccc4)C21)C3(C)C (stereo not drawn) + C#Cc1c(F)ccc2cc(O)cc(-c3ncc4c(N5CC6CCC(C5)N6)nc(OCC56CCCN5CC(F)C6)nc4c3F)c12 reads 24.1%

The measured viability, T/C associated with CC(Nc1ccc2c(c1)OCCn1cc(N3C(=O)OCC3C(F)F)nc1-2)C(N)=O (stereo not drawn) + C#Cc1c(F)ccc2cc(O)cc(-c3ncc4c(N5CC6CCC(C5)N6)nc(OCC56CCCN5CC(F)C6)nc4c3F)c12 reads 13.9%

The measured viability, T/C associated with CC(C)NCC(C(=O)N1CCN(c2ncnc3c2C(C)CC3O)CC1)c1ccc(Cl)cc1 (stereo not drawn) + C#Cc1c(F)ccc2cc(O)cc(-c3ncc4c(N5CC6CCC(C5)N6)nc(OCC56CCCN5CC(F)C6)nc4c3F)c12 reads 12.7%

The measured viability, T/C associated with CCC(CC)c1cc(NC2CCC(N)C2)n2nccc2n1 (stereo not drawn) + C#Cc1c(F)ccc2cc(O)cc(-c3ncc4c(N5CC6CCC(C5)N6)nc(OCC56CCCN5CC(F)C6)nc4c3F)c12 reads 16%

The measured viability, T/C associated with CC1(O)CCCC1n1c(=O)c(C(F)F)cc2cnc(NC3CCN(S(C)(=O)=O)CC3)nc21 (stereo not drawn) + C#Cc1c(F)ccc2cc(O)cc(-c3ncc4c(N5CC6CCC(C5)N6)nc(OCC56CCCN5CC(F)C6)nc4c3F)c12 reads 31.4%

The measured viability, T/C associated with NC1c2ccccc2OC12CCN(c1cnc3c(N4CCCc5ncccc54)n[nH]c3n1)CC2 (stereo not drawn) + C#Cc1c(F)ccc2cc(O)cc(-c3ncc4c(N5CC6CCC(C5)N6)nc(OCC56CCCN5CC(F)C6)nc4c3F)c12 reads 18.7%

The measured viability, T/C associated with Cc1nc(N2CCC3(CC2)COC(C)C3N)c(CO)nc1Sc1ccnc(N)c1Cl (stereo not drawn) + C#Cc1c(F)ccc2cc(O)cc(-c3ncc4c(N5CC6CCC(C5)N6)nc(OCC56CCCN5CC(F)C6)nc4c3F)c12 reads 17.3%

====

System: 653999-131-R-J2-PDC complex spheroids, growth inhibition
run-description: Anticancer human tumor 653999-131-R-J2-PDC cell line growth inhibition [RAS];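 note: spheroids exposed to the agents for seven days before the readout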
condition-info: curve of first compound; second compound 0.3 µM
measure-name: IC50

The measured IC50 associated with CCC(CC)c1cc(NC2CCC(N)C2)n2nccc2n1 (stereo not drawn) + CCn1c(-c2cc(N3CCN(C)CC3)cnc2C(C)OC)c2c3cc(ccc31)-c1csc(n1)CC(NC(=O)C1CC1C)C(=O)N1CCCC(N1)C(=O)OCC(C)(C)C2 reads < 31.6 nM

The measured IC50 associated with Nc1ccn(C2OC(CO)C(O)C2(F)F)c(=O)n1 (stereo not drawn) + CCn1c(-c2cc(N3CCN(C)CC3)cnc2C(C)OC)c2c3cc(ccc31)-c1csc(n1)CC(NC(=O)C1CC1C)C(=O)N1CCCC(N1)C(=O)OCC(C)(C)C2 reads < 3.16 nM

The measured IC50 associated with CC(C)NCC(C(=O)N1CCN(c2ncnc3c2C(C)CC3O)CC1)c1ccc(Cl)cc1 (stereo not drawn) + CCn1c(-c2cc(N3CCN(C)CC3)cnc2C(C)OC)c2c3cc(ccc31)-c1csc(n1)CC(NC(=O)C1CC1C)C(=O)N1CCCC(N1)C(=O)OCC(C)(C)C2 reads < 31.6 nM

====

Tested on: 653999-131-R-J2-PDC complex spheroids, growth inhibition
run-description: Anticancer human tumor 653999-131-R-J2-PDC cell line growth inhibition [RAS];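 note: spheroids exposed to the agents for seven days before the readout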
condition-info: second compound 0.316 µM; first compound 0.1 µM; stronger effect = lower value
Description: RAS pathway inhibitors in Combinations in Complex Spheroids A high-throughput screen of multi-cell type tumor spheroids was designed to identify active combinations of RAS pathway inhibitors and targeted small molecules. Complex spheroids include a stromal component modeled by human endothelial cells (HUVEC) and fibroblasts modeled by human mesenchymal stem cells (MSCs). […] Compounds. […] If the clinical Cmax for an agent had not been determined, the highest concentration tested was 10 microM. […]
measure-name: viability, T/C (%)
The reply should contain only the number, in %.

The measured viability, T/C associated with CC(=O)OC12COC1CC(O)C1(C)C(=O)C(O)C3=C(C)C(OC(=O)C(O)C(NC(=O)OC(C)(C)C)c4ccccc4)CC(O)(C(OC(=O)c4ccccc4)C21)C3(C)C (configuration not stated) + C=CC(=O)N1CCN(c2nc(OCC3CCCN3C)nc3c(F)c(-c4nc(N)cc(C)c4C(F)(F)F)c(Cl)cc23)C(C)C1 reads 61.3

The measured viability, T/C associated with C=CC(=O)Nc1cc(Nc2nccc(-c3cn(C)c4ccccc34)n2)c(OC)cc1N(C)CCN(C)C + C=CC(=O)N1CCN(c2nc(OCC3CCCN3C)nc3c(F)c(-c4nc(N)cc(C)c4C(F)(F)F)c(Cl)cc23)C(C)C1 reads 70.8

====

System: 653999-131-R-J2-PDC complex spheroids, growth inhibition
run-description: Anticancer human tumor 653999-131-R-J2-PDC cell line growth inhibition [RAS];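 note: spheroids exposed to the agents for seven days before the readout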
condition-info: second compound 0.003 µM; first compound 0.0316 µM; stronger effect = lower value
So I've got a bunch of compounds here, and I need their viability, T/C values.
The reply should contain only the number, in %.

The measured viability, T/C associated with Nc1ccn(C2OC(CO)C(O)C2(F)F)c(=O)n1 (configuration not stated) + CCn1c(-c2cccnc2C(C)OC)c2c3cc(ccc31)N1CCOC(CC(NC(=O)C(C(C)C)N(C)C(=O)C3(F)CCN(C(=O)C#CC(C)(C)N(C)C)CC3)C(=O)N3CCCC(N3)C(=O)OCC(C)(C)C2)C1 reads 57.9

The measured viability, T/C associated with CC(=O)OC12COC1CC(O)C1(C)C(=O)C(O)C3=C(C)C(OC(=O)C(O)C(NC(=O)OC(C)(C)C)c4ccccc4)CC(O)(C(OC(=O)c4ccccc4)C21)C3(C)C (configuration not stated) + CCn1c(-c2cc(N3CCN(C)CC3)cnc2C(C)OC)c2c3cc(ccc31)-c1csc(n1)CC(NC(=O)C1CC1C)C(=O)N1CCCC(N1)C(=O)OCC(C)(C)C2 reads 29.9

====

Tested on: 653999-131-R-J2-PDC complex spheroids, growth inhibition
run-description: Anticancer human tumor 653999-131-R-J2-PDC cell line growth inhibition [RAS];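 note: spheroids exposed to the agents for seven days before the readout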
condition-info: second compound 1 µM; first compound 3.16 µM; stronger effect = lower value
measure-name: viability, T/C (%)
The reply should contain only the number, in %.

The measured viability, T/C associated with CC1(O)CCCC1n1c(=O)c(C(F)F)cc2cnc(NC3CCN(S(C)(=O)=O)CC3)nc21 (stereo not drawn) + C=CC(=O)N1CCN(c2nc(OCC3CCCN3C)nc3c(F)c(-c4nc(N)cc(C)c4C(F)(F)F)c(Cl)cc23)C(C)C1 reads 68.4

The measured viability, T/C associated with CC(=O)OC12COC1CC(O)C1(C)C(=O)C(O)C3=C(C)C(OC(=O)C(O)C(NC(=O)OC(C)(C)C)c4ccccc4)CC(O)(C(OC(=O)c4ccccc4)C21)C3(C)C (stereo not drawn) + C#Cc1c(F)ccc2cc(O)cc(-c3ncc4c(N5CC6CCC(C5)N6)nc(OCC56CCCN5CC(F)C6)nc4c3F)c12 reads 28.8

The measured viability, T/C associated with NC1c2ccccc2OC12CCN(c1cnc3c(N4CCCc5ncccc54)n[nH]c3n1)CC2 (stereo not drawn) + C=CC(=O)N1CCN(c2nc(OCC3CCCN3C)nc3c(F)c(-c4nc(N)cc(C)c4C(F)(F)F)c(Cl)cc23)C(C)C1 reads 85

====

System: 653999-131-R-J2-PDC complex spheroids, growth inhibition
run-description: Anticancer human tumor 653999-131-R-J2-PDC cell line growth inhibition [RAS];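 note: spheroids exposed to the agents for seven days before the readout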
condition-info: second compound 0.003 µM; first compound 0.00949 µM; stronger effect = lower value
measure-name: viability, T/C (%)
The reply should contain only the number, in %.

The measured viability, T/C associated with CCc1c2c(nc3ccc(O)cc13)-c1cc3c(c(=O)n1C2)COC(=O)[C@]3(O)CC + CCn1c(-c2cc(N3CCN(C)CC3)cnc2C(C)OC)c2c3cc(ccc31)-c1csc(n1)CC(NC(=O)C1CC1C)C(=O)N1CCCC(N1)C(=O)OCC(C)(C)C2 reads 30.6

The measured viability, T/C associated with CCc1c2c(nc3ccc(O)cc13)-c1cc3c(c(=O)n1C2)COC(=O)[C@]3(O)CC + CCn1c(-c2cccnc2C(C)OC)c2c3cc(ccc31)N1CCOC(CC(NC(=O)C(C(C)C)N(C)C(=O)C3(F)CCN(C(=O)C#CC(C)(C)N(C)C)CC3)C(=O)N3CCCC(N3)C(=O)OCC(C)(C)C2)C1 reads 52.8

The measured viability, T/C associated with CC1(C)CCC(Nc2ncc(C(F)(F)F)c(-c3c[nH]c4c(P(C)(C)=O)c(C#N)ccc34)n2)CN1 (centres undefined) + CCn1c(-c2cc(N3CCN(C)CC3)cnc2C(C)OC)c2c3cc(ccc31)-c1csc(n1)CC(NC(=O)C1CC1C)C(=O)N1CCCC(N1)C(=O)OCC(C)(C)C2 reads 40.8

The measured viability, T/C associated with CC1(C)CCC(Nc2ncc(C(F)(F)F)c(-c3c[nH]c4c(P(C)(C)=O)c(C#N)ccc34)n2)CN1 (centres undefined) + CCn1c(-c2cccnc2C(C)OC)c2c3cc(ccc31)N1CCOC(CC(NC(=O)C(C(C)C)N(C)C(=O)C3(F)CCN(C(=O)C#CC(C)(C)N(C)C)CC3)C(=O)N3CCCC(N3)C(=O)OCC(C)(C)C2)C1 reads 79.5
